// provenance: the NIST ThermoML archive (doi:10.1016/j.jct.2013.01.005)

Below, each entry is listed alongside its reported activity coefficient.
Assay method text: activity coefficient (dimensionless); of the first substance listed, at infinite dilution; xn = mol fraction of the nth substance listed
Condition parameters: 338.15 K; 101 kPa; Liquid; Chromatography; x1 = 0
Recorded metric: activity coefficient

* CO [methanol] + CCCCCC[N+]1(C)CCCCC1.O=S(=O)([N-]S(=O)(=O)C(F)(F)F)C(F)(F)F | 1.16
* c1ccsc1 [thiophene] + CCCCC[N+]1(C)CCCCC1.O=S(=O)([N-]S(=O)(=O)C(F)(F)F)C(F)(F)F | 0.69
* CCCCCCCC [octane] + CCCCCC[N+]1(C)CCCCC1.O=S(=O)([N-]S(=O)(=O)C(F)(F)F)C(F)(F)F | 11.8
* CCCCCCC [heptane] + CCCCCC[N+]1(C)CCCCC1.O=S(=O)([N-]S(=O)(=O)C(F)(F)F)C(F)(F)F | 8.99

====

Below, each entry is listed alongside its reported activity coefficient.
Assay method text: activity coefficient (dimensionless); of the first substance listed, at infinite dilution; xn = mol fraction of the nth substance listed
Condition parameters: 338.15 K; 101 kPa; Liquid; Chromatography; x1 = 0
Recorded metric: activity coefficient

- CCCOCCC [dipropyl ether] + CCCCC[N+]1(C)CCCCC1.O=S(=O)([N-]S(=O)(=O)C(F)(F)F)C(F)(F)F: 4.02
- CCO [ethanol] + CCCCCC[N+]1(C)CCCCC1.O=S(=O)([N-]S(=O)(=O)C(F)(F)F)C(F)(F)F: 1.37
- Cc1cccc(C)c1 [1,3-dimethylbenzene] + CCCCC[N+]1(C)CCCCC1.O=S(=O)([N-]S(=O)(=O)C(F)(F)F)C(F)(F)F: 1.31
- C1=CCCCC1 [cyclohexene] + CCCCCC[N+]1(C)CCCCC1.O=S(=O)([N-]S(=O)(=O)C(F)(F)F)C(F)(F)F: 2.88

====

Assay method text: activity coefficient (dimensionless); of the first substance listed, at infinite dilution; xn = mol fraction of the nth substance listed
Condition parameters: 328.15 K; 101 kPa; Liquid; Chromatography; x1 = 0
Below, each entry is listed alongside its reported activity coefficient.
Recorded metric: activity coefficient

* C=CCCCCCCCC [1-decene] + CCCCCC[N+]1(C)CCCCC1.O=S(=O)([N-]S(=O)(=O)C(F)(F)F)C(F)(F)F | 12
* C1CCCC1 [cyclopentane] + CCCCCC[N+]1(C)CCCCC1.O=S(=O)([N-]S(=O)(=O)C(F)(F)F)C(F)(F)F | 3.43
* C#CCCC [1-pentyne] + CCCCC[N+]1(C)CCCCC1.O=S(=O)([N-]S(=O)(=O)C(F)(F)F)C(F)(F)F | 1.62
* Cc1ccccc1 [toluene] + CCCCC[N+]1(C)CCCCC1.O=S(=O)([N-]S(=O)(=O)C(F)(F)F)C(F)(F)F | 0.955

====

Assay method text: activity coefficient (dimensionless); of the first substance listed, at infinite dilution; xn = mol fraction of the nth substance listed
Condition parameters: 318.15 K; 101 kPa; Liquid; Chromatography; x1 = 0
Below, each entry is listed alongside its reported activity coefficient.
Recorded metric: activity coefficient

• CC(C)=O [acetone] + CCCCC[N+]1(C)CCCCC1.O=S(=O)([N-]S(=O)(=O)C(F)(F)F)C(F)(F)F = 0.426
• CCc1ccccc1 [ethylbenzene] + CCCCC[N+]1(C)CCCCC1.O=S(=O)([N-]S(=O)(=O)C(F)(F)F)C(F)(F)F = 1.31
• C#CCCCCCC [1-octyne] + CCCCCC[N+]1(C)CCCCC1.O=S(=O)([N-]S(=O)(=O)C(F)(F)F)C(F)(F)F = 3.14
• C1CCOC1 [tetrahydrofuran] + CCCCCC[N+]1(C)CCCCC1.O=S(=O)([N-]S(=O)(=O)C(F)(F)F)C(F)(F)F = 0.579
• CCCCCCCCCC [decane] + CCCCC[N+]1(C)CCCCC1.O=S(=O)([N-]S(=O)(=O)C(F)(F)F)C(F)(F)F = 29.5
• CCO [ethanol] + CCCCC[N+]1(C)CCCCC1.O=S(=O)([N-]S(=O)(=O)C(F)(F)F)C(F)(F)F = 1.58
• c1ccsc1 [thiophene] + CCCCC[N+]1(C)CCCCC1.O=S(=O)([N-]S(=O)(=O)C(F)(F)F)C(F)(F)F = 0.665
• Cc1ccc(C)cc1 [1,4-dimethylbenzene] + CCCCCC[N+]1(C)CCCCC1.O=S(=O)([N-]S(=O)(=O)C(F)(F)F)C(F)(F)F = 1.17
• CCCCCC [hexane] + CCCCCC[N+]1(C)CCCCC1.O=S(=O)([N-]S(=O)(=O)C(F)(F)F)C(F)(F)F = 7.4
• COC(C)(C)C [2-methoxy-2-methylpropane] + CCCCC[N+]1(C)CCCCC1.O=S(=O)([N-]S(=O)(=O)C(F)(F)F)C(F)(F)F = 1.85
• Cc1ccccc1C [1,2-dimethylbenzene] + CCCCC[N+]1(C)CCCCC1.O=S(=O)([N-]S(=O)(=O)C(F)(F)F)C(F)(F)F = 1.14
• C1CCOC1 [tetrahydrofuran] + CCCCC[N+]1(C)CCCCC1.O=S(=O)([N-]S(=O)(=O)C(F)(F)F)C(F)(F)F = 0.627
• CCC(C)(C)OC [2-methoxy-2-methylbutane] + CCCCC[N+]1(C)CCCCC1.O=S(=O)([N-]S(=O)(=O)C(F)(F)F)C(F)(F)F = 2.47
• C1CCCCC1 [cyclohexane] + CCCCCC[N+]1(C)CCCCC1.O=S(=O)([N-]S(=O)(=O)C(F)(F)F)C(F)(F)F = 4.8
• C=CCCCCCC [oct-1-ene] + CCCCC[N+]1(C)CCCCC1.O=S(=O)([N-]S(=O)(=O)C(F)(F)F)C(F)(F)F = 9.65
• Cc1ccc(C)cc1 [1,4-dimethylbenzene] + CCCCC[N+]1(C)CCCCC1.O=S(=O)([N-]S(=O)(=O)C(F)(F)F)C(F)(F)F = 1.24
• CCCO [propan-1-ol] + CCCCC[N+]1(C)CCCCC1.O=S(=O)([N-]S(=O)(=O)C(F)(F)F)C(F)(F)F = 1.82
• C1CCCCCC1 [cycloheptane] + CCCCC[N+]1(C)CCCCC1.O=S(=O)([N-]S(=O)(=O)C(F)(F)F)C(F)(F)F = 7.49
• CC(C)CC(C)(C)C [2,2,4-trimethylpentane] + CCCCCC[N+]1(C)CCCCC1.O=S(=O)([N-]S(=O)(=O)C(F)(F)F)C(F)(F)F = 9.59
• Cc1ccccc1 [toluene] + CCCCC[N+]1(C)CCCCC1.O=S(=O)([N-]S(=O)(=O)C(F)(F)F)C(F)(F)F = 0.919
• C=CCCCC [hex-1-ene] + CCCCC[N+]1(C)CCCCC1.O=S(=O)([N-]S(=O)(=O)C(F)(F)F)C(F)(F)F = 5.31
• C#CCCC [1-pentyne] + CCCCCC[N+]1(C)CCCCC1.O=S(=O)([N-]S(=O)(=O)C(F)(F)F)C(F)(F)F = 1.45
• CCCCCC [hexane] + CCCCC[N+]1(C)CCCCC1.O=S(=O)([N-]S(=O)(=O)C(F)(F)F)C(F)(F)F = 9.5
• CCC(C)(C)C [2,2-dimethylbutane] + CCCCC[N+]1(C)CCCCC1.O=S(=O)([N-]S(=O)(=O)C(F)(F)F)C(F)(F)F = 7.94
• CCCCCCC [heptane] + CCCCC[N+]1(C)CCCCC1.O=S(=O)([N-]S(=O)(=O)C(F)(F)F)C(F)(F)F = 12.4
• CCCCO [butan-1-ol] + CCCCCC[N+]1(C)CCCCC1.O=S(=O)([N-]S(=O)(=O)C(F)(F)F)C(F)(F)F = 2.13
• CC1CCCCC1 [methylcyclohexane] + CCCCC[N+]1(C)CCCCC1.O=S(=O)([N-]S(=O)(=O)C(F)(F)F)C(F)(F)F = 7.49
• C#CCCCCCC [1-octyne] + CCCCC[N+]1(C)CCCCC1.O=S(=O)([N-]S(=O)(=O)C(F)(F)F)C(F)(F)F = 3.74
